System: speedwell (bird's-eye speedwell, Veronica persica)
Test: Test D controlled growth environment herbicide test, pre- and postemergence
Type: in vivo
Conditions: Postemergence, 250 g ai/ha; scale 0 to 100 (0 no effect, 100 complete control)
readout: Plant response rating, Speedwell

// worked examples, Plant response rating, Speedwell included
GET /values?readout=Plant response rating, Speedwell&system=speedwell (bird's-eye speedwell, Veronica persica)&item= `CC(=O)Oc1c(Br)nn(C)c(=O)c1-c1c(C)ccc2ccccc12`
75

Return Plant response rating, Speedwell measured with speedwell (bird's-eye speedwell, Veronica persica) given this molecule: `Cc1ccc2sc(C)c(-c3c(O)c(C)nn(C)c3=O)c2c1`
70

Continuing:
Find the measured Plant response rating, Speedwell: item `COC(=O)Oc1c(C)nn(C)c(=O)c1-c1c(C)sc2c(C)cc(C)cc12` , target or system speedwell (bird's-eye speedwell, Veronica persica).
100

Item `C#CCOC(=O)Oc1c(C)nn(C)c(=O)c1-c1c(C)sc2ccc(C)cc12` with speedwell (bird's-eye speedwell, Veronica persica) - Plant response rating, Speedwell?
80

What Plant response rating, Speedwell appears in the records for this molecule with speedwell (bird's-eye speedwell, Veronica persica)? `Cc1cc(C)c2sc(C)c(-c3c(OC(=O)OCCCl)c(C)nn(C)c3=O)c2c1`
100

Request: Plant response rating, Speedwell, test system speedwell (bird's-eye speedwell, Veronica persica), entry `Cc1cc(C)c2sc(C)c(-c3c(OC(=O)OC(C)C)c(C)nn(C)c3=O)c2c1`
100

* * *

System: arrowleaf sida (Sida rhombifolia)
Test: Test E greenhouse herbicide test, pre- and postemergence
Type: in vivo
Settings: 62 g ai/ha, Preemergence; scale 0 to 100 (0 no effect, 100 complete control)
readout: Plant response rating, Arrowleaf Sida
Answer with the value's number alone.

Param item = COC(=O)Oc1c(C)nn(C)c(=O)c1-c1c(C)sc2c(C)cc(C)cc12 [Compound 81] ; retrieve measured Plant response rating, Arrowleaf Sida.
60

Quick one: Plant response rating, Arrowleaf Sida of Cc1ccc2ccccc2c1-c1c(O)c(C)nn(C)c1=O [Compound 59] ?
95

What value of measured Plant response rating, Arrowleaf Sida is listed for CCOC(=O)Oc1c(C)nn(C)c(=O)c1-c1c(CC)ccc2ccccc12 [Compound 37] ?
85

Form field: reported Plant response rating, Arrowleaf Sida of CCC(=O)Oc1c(C)nn(C)c(=O)c1-c1c(C)sc2ccc(Cl)cc12 [Compound 109]
30

* * *

Test system: galium (catchweed bedstraw, Galium aparine)
Assay: Test D controlled growth environment herbicide test, pre- and postemergence
Type: in vivo
Details: Preemergence, 250 g ai/ha; scale 0 to 100 (0 no effect, 100 complete control)
readout: Plant response rating, Galium
Please state the value as a number alone, without comment.

Need Plant response rating, Galium, item `CCOC(=O)Oc1c(C)nn(C)c(=O)c1-c1c(C)sc2ccc(C)cc12`
85

Next:
For the molecule shown here, `Cc1cc(C)c2sc(C)c(-c3c(OC(=O)OCCCl)c(C)nn(C)c3=O)c2c1` , give the reported Plant response rating, Galium.
100

What does the data say about its Plant response rating, Galium? Entry: `CC(=O)Oc1c(Br)nn(C)c(=O)c1-c1c(C)ccc2ccccc12`
95

Dear colleague, I am looking for the recorded Plant response rating, Galium of the following molecule: `CCOC(=O)Oc1c(C)nn(C)c(=O)c1-c1c(C)sc2c(C)cc(C)cc12`
85

Item under review: `Cc1ccc2ccccc2c1-c1c(O)c(C)nn(C)c1=O` . Reported Plant response rating, Galium?
100

Query (molecule): `CC(=O)Oc1c(C)nn(C)c(=O)c1-c1c(C)cc(C)c2ccccc12` ; field requested: Plant response rating, Galium
98

Entry under review: `CC(=O)Oc1c(C)nn(C)c(=O)c1-c1c(C)sc2ccc(C)cc12` . Reported Plant response rating, Galium?
100

* * *

Tested on: barnyardgrass (Echinochloa crus-galli)
Assay: Test E greenhouse herbicide test, pre- and postemergence
Type: in vivo
Settings: 62 g ai/ha, Postemergence; scale 0 to 100 (0 no effect, 100 complete control)
Below, each of the molecules is paired with its reported Plant response rating, Barnyardgrass value.
Output: the number by itself.

Please review the entries below; each comes with its answer.
Could you tell me which Plant response rating, Barnyardgrass is on file for `CCOC(=O)Oc1c(C)nn(C)c(=O)c1-c1c(C)sc2ccc(C)cc12` ?
40

Value lookup for Plant response rating, Barnyardgrass; key = `Cc1cc(C)c2sc(C)c(-c3c(OC(=O)OCCCl)c(C)nn(C)c3=O)c2c1`
30

State the recorded Plant response rating, Barnyardgrass for this entry: `CC(=O)Oc1c(C)nn(C)c(=O)c1-c1c(C)cc(C)c2ccccc12`
40

Proceed to the following item.
May I ask what Plant response rating, Barnyardgrass has been recorded for `CCOC(=O)Oc1c(C)nn(C)c(=O)c1-c1c(C)sc2c(C)cc(C)cc12` ?
50

* * *

Below: a set of entries, each annotated with reported Plant response rating, Corn.
System: corn (Zea mays)
Assay: Test C greenhouse herbicide test, pre- and postemergence
Format: in vivo
Settings: Preemergence, 31 g ai/ha; scale 0 to 100, 0 is no effect, 100 is complete control
Form rule: numeric answer, no unit written next to it.

Give the measured Plant response rating, Corn of `COC(=O)Oc1c(Br)nn(C)c(=O)c1-c1c(C)ccc2ccccc12` .
0

Reported Plant response rating, Corn for `Cc1nn(C)c(=O)c(-c2c(C)sc3ccc(Cl)cc23)c1O` : what is it?
5

I am curious: what Plant response rating, Corn value has been reported for `CC(=O)Oc1c(C)nn(C)c(=O)c1-c1c(C)sc2ccc(C)cc12` ?
0

If you can, please state the reported Plant response rating, Corn value of `COc1nn(C)c(=O)c(-c2c(C)ccc3ccccc23)c1O` .
0

# query: Plant response rating, Corn of entry `Cc1ccc2ccccc2c1-c1c(O)c(Cl)nn(C)c1=O`
0

More entries:
Plant response rating, Corn for `Cc1sc2ccc(Cl)cc2c1-c1c(OS(C)(=O)=O)c(Cl)nn(C)c1=O` ?
0

Looking for the measured Plant response rating, Corn of `Cc1ccc2ccc(C)c(-c3c(O)c(C)nn(C)c3=O)c2c1` , can you help?
0

Would you kindly share the measured Plant response rating, Corn for `CCC(=O)Oc1c(C)nn(C)c(=O)c1-c1ccc(Br)c2ccccc12` ?
5

* * *

Tested on: lambsquarters (Chenopodium album)
Assay: Test D controlled growth environment herbicide test, pre- and postemergence
Format: in vivo
Conditions: Postemergence, 31 g ai/ha; scale 0 to 100 (0 no effect, 100 complete control)
# reported Lambsquarters plant response rating; entries follow
API note: the answer field is a bare number with no unit suffix.

Example cases with answers are listed next.
Requested read-out Lambsquarters plant response rating, target or system lambsquarters (Chenopodium album), entry Cc1cc(C)c2sc(C)c(-c3c(OC(=O)OCCCl)c(C)nn(C)c3=O)c2c1 [Compound 85]
80

Param readout = Lambsquarters plant response rating; param system = lambsquarters (Chenopodium album); param query = CC(=O)Oc1c(C)nn(C)c(=O)c1-c1c(C)sc2ccc(C)cc12 [Compound 25] ; response: value
90

Kindly state the measured Lambsquarters plant response rating obtained for Cc1ccc2sc(C)c(-c3c(O)c(C)nn(C)c3=O)c2c1 [Compound 1] with lambsquarters (Chenopodium album).
75

Requested read-out Lambsquarters plant response rating, target or system lambsquarters (Chenopodium album), entry CC(=O)Oc1c(C)nn(C)c(=O)c1-c1c(C)sc2c(C)cc(C)cc12 [Compound 27]
80

// fetch lambsquarters (Chenopodium album) Lambsquarters plant response rating for CCOC(=O)Oc1c(C)nn(C)c(=O)c1-c1c(C)sc2c(C)cc(C)cc12 [Compound 83]
95

Others:
Find Lambsquarters plant response rating (lambsquarters (Chenopodium album)) for the entry CCOC(=O)Oc1c(C)nn(C)c(=O)c1-c1c(C)sc2ccc(C)cc12 [Compound 82]
95

Form: Entry = CC(=O)Oc1c(C)nn(C)c(=O)c1-c1ccc(F)c2ccccc12 [Compound 90] | System = lambsquarters (Chenopodium album) | Lambsquarters plant response rating = ____
90

GET /values?readout=Lambsquarters plant response rating&system=lambsquarters (Chenopodium album)&item= Cc1ccc2ccc(C)c(-c3c(O)c(C)nn(C)c3=O)c2c1 [Compound 60]
80

Request body: readout Lambsquarters plant response rating, system lambsquarters (Chenopodium album), query CCC(=O)Oc1c(C)nn(C)c(=O)c1-c1c(C)sc2c(C)cc(C)cc12 [Compound 28] . Return the value.
80

* * *

Measured Wheat plant response rating of individual entries
System: wheat (winter wheat, Triticum aestivum)
Assay: Test C greenhouse herbicide test, pre- and postemergence
Assay type: in vivo
Details: Postemergence, 62 g ai/ha; 0 to 100 scale (0 no effect, 100 complete control)
Please state the value as a number alone, without comment.

Example compounds with recorded Wheat plant response rating:
Give its Wheat plant response rating value. Item: `COC(=O)Oc1c(Br)nn(C)c(=O)c1-c1c(C)ccc2ccccc12`
90

Can you look up the measured Wheat plant response rating of `CC(=O)Oc1c(C)nn(C)c(=O)c1-c1c(C)cc(C)c2ccccc12` for me?
20

Report Wheat plant response rating for `COC(=O)Oc1cnn(C)c(=O)c1-c1c(C)ccc2ccccc12` please.
35

---
Any idea what Wheat plant response rating was measured for `CC(=O)Oc1c(C)nn(C)c(=O)c1-c1c([N+](=O)[O-])ccc2ccccc12` ?
5
